Just for reference, patent US9175028B2 is where these values come from.

Kindly state fold induction at 300 µM for each of the entries shown.
System: human colorectal cancer-derived cell line NCI-H716
assayDetails: GLP-1 secretion, GLP-1 concentration in supernatant by ELISA
Format: cell-based
assayContext: Homo sapiens, NCI-H716, 1 h, GLP-1 concentration in supernatant against control group (0.1% DMSO) as 1, 60 minutes, 300 μM

Lookup: Fill in the blank: the reported fold induction at 300 µM of COc1cc(COC(=O)CCCC/C=C/C(C)C)ccc1OC1OC(CO)C(O)C(O)C1O (stereo not shown) [compound 20] is ____.
Found: 1.56

Lookup: Fill in the blank: the reported fold induction at 300 µM of COc1cc(CCOC(=O)CCCCCCC(C)C)ccc1OC1OC(CO)C(OC2OC(CO)C(O)C(O)C2O)C(O)C1O (stereo not shown) [compound 23] is ____.
Found: 10.3

Lookup: Fill in the blank: the reported fold induction at 300 µM of COc1cc(COC(=O)CCCCCC(C)C)ccc1OC1OC(CO)C(OC2OC(CO)C(O)C(O)C2O)C(O)C1O (stereo not shown) [compound 36] is ____.
Found: 2.41

Lookup: Fill in the blank: the reported fold induction at 300 µM of COc1cc(COC(=O)CCCC/C=C/C(C)C)ccc1OC1OC(CO)C(OC2OC(CO)C(O)C(O)C2O)C(O)C1O (stereo not shown) [compound 35] is ____.
Found: 2.4

Lookup: Fill in the blank: the reported fold induction at 300 µM of COc1cc(CCC(=O)OCCCCCCCC(C)C)ccc1OC1OC(CO)C(OC2OC(CO)C(O)C(O)C2O)C(O)C1O (stereo not shown) [compound 32] is ____.
Found: 3.46

Lookup: Fill in the blank: the reported fold induction at 300 µM of COc1cc(CNC(=O)CCCCCCC(C)C)ccc1O[C@@H]1O[C@H](CO)[C@@H](O[C@@H]2O[C@H](CO)[C@@H](O)[C@H](O)[C@H]2O)[C@H](O)[C@H]1O [compound 27, reference compound] is ____.
Found: 0.71

Lookup: Fill in the blank: the reported fold induction at 300 µM of COc1cc(COC(=O)CCCCCC(C)C)ccc1OC1OC(CO)C(O)C(O)C1O (stereo not shown) [compound 18] is ____.
Found: 1.85
